species: Homo sapiens; assay: Selectivity ratio of EC50 for human mGluR4 to EC50 for human mGluR1
Please respond with reported Ratio EC50 for every item in the list.
Lab note: record the figure alone, no unit after it.

Input line: Let me know recorded Ratio EC50 for Cc1ccoc1C(=O)Nc1ccc(N2C(=O)c3cccc(F)c3C2=O)c(C(F)(F)F)c1 , thanks.
Output line: 18.5

Input line: Let me know recorded Ratio EC50 for Cc1cc(NC(=O)c2occc2C)ccc1N1C(=O)c2ccccc2C1=O , thanks.
Output line: 9.9

Input line: Let me know recorded Ratio EC50 for Cc1ccoc1C(=O)Nc1ccc(N2C(=O)c3cccc(F)c3C2=O)nc1 , thanks.
Output line: 17.9

Input line: Let me know recorded Ratio EC50 for Cc1ccoc1C(=O)Nc1cnc(N2C(=O)c3cccc(C)c3C2=O)nc1 , thanks.
Output line: 5.95

Input line: Let me know recorded Ratio EC50 for Cc1ccoc1C(=O)Nc1ccc(N2C(=O)c3cccc(Cl)c3C2=O)c(F)c1 , thanks.
Output line: 9.5

Input line: Let me know recorded Ratio EC50 for Cc1ccoc1C(=O)Nc1ccc(N2C(=O)c3cccc(Cl)c3C2=O)cc1 , thanks.
Output line: 16.7

Input line: Let me know recorded Ratio EC50 for Cc1cc(NC(=O)c2occc2C)ccc1N1C(=O)c2cccc(C)c2C1=O , thanks.
Output line: 19.8

Input line: Let me know recorded Ratio EC50 for Cc1ccoc1C(=O)Nc1cnc(N2C(=O)c3ccccc3C2=O)nc1 , thanks.
Output line: 1.01

Input line: Let me know recorded Ratio EC50 for Cc1ccoc1C(=O)Nc1cnc(N2C(=O)c3cccc(Cl)c3C2=O)nc1 , thanks.
Output line: 12.2

Input line: Let me know recorded Ratio EC50 for Cc1ccoc1C(=O)Nc1ccc(N2C(=O)c3cccc(C)c3C2=O)c2ccccc12 , thanks.
Output line: 27.3

Input line: Let me know recorded Ratio EC50 for Cc1ccoc1C(=O)Nc1ccc(N2C(=O)c3cccc(F)c3C2=O)c2ccccc12 , thanks.
Output line: 41.1

Input line: Let me know recorded Ratio EC50 for Cc1ccoc1C(=O)Nc1ccc(N2C(=O)c3cccc(C)c3C2=O)cc1 , thanks.
Output line: 21.7

Input line: Let me know recorded Ratio EC50 for Cc1ccoc1C(=O)Nc1ccc(N2C(=O)c3cccc(C)c3C2=O)c(F)c1 , thanks.
Output line: 11

Input line: Let me know recorded Ratio EC50 for Cc1ccoc1C(=O)Nc1ccc(N2C(=O)c3ccccc3C2=O)c(F)c1 , thanks.
Output line: 11.9

Input line: Let me know recorded Ratio EC50 for Cc1ccoc1C(=O)Nc1ccc(N2C(=O)c3cccc(C)c3C2=O)c(C(F)(F)F)c1 , thanks.
Output line: 10.8

Input line: Let me know recorded Ratio EC50 for Cc1ccoc1C(=O)Nc1ccc(N2C(=O)c3cccc(Cl)c3C2=O)c2ccccc12 , thanks.
Output line: 22.8

Input line: Let me know recorded Ratio EC50 for Cc1ccoc1C(=O)Nc1ccc(N2C(=O)c3cccc(F)c3C2=O)c(F)c1 , thanks.
Output line: 19.3

Input line: Let me know recorded Ratio EC50 for Cc1ccoc1C(=O)Nc1ccc(N2C(=O)c3ccccc3C2=O)c(C(F)(F)F)c1 , thanks.
Output line: 54.1

Input line: Let me know recorded Ratio EC50 for COc1cc(NC(=O)c2occc2C)ccc1N1C(=O)c2ccccc2C1=O , thanks.
Output line: 25.6

Input line: Let me know recorded Ratio EC50 for Cc1ccoc1C(=O)Nc1ccc(N2C(=O)c3cccc(Cl)c3C2=O)nc1 , thanks.
Output line: 31.9

Origin of measurements: ChEMBL document CHEMBL3632577
